Exercise: state measured Bliss excess for each of the molecules provided.
system: D-392MG (Glioblastoma); test: Bliss excess, mean over the matrix (fraction); higher = more synergy;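 further: after 72 h of two-drug dosing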

NC1(C(=O)N[C@@H](CCO)c2ccc(Cl)cc2)CCN(c2ncnc3[nH]ccc23)CC1 [Capivasertib] + CCN(CCO)CCCOc1ccc2c(Nc3cc(CC(=O)Nc4cccc(F)c4)[nH]n3)ncnc2c1 [AZD2811] (first compound max 10 µM, 7x7, partner max 1 µM) has a reported Bliss excess of -0.0265

Cc1cc2ncnn2cc1Nc1ncc2c(n1)n(C1CCOCC1)c(=O)n2C [AZD7648] + C[C@@H]1COCCN1C2=NC(=NC(=C2)C3(CC3)[S@](=N)(=O)C)C4=C5C=CNC5=NC=C4 [AZD6738] (first compound max 10 µM, 7x7, partner max 10 µM) has a reported Bliss excess of 0.0217

CN(CCO)CC[C@H](CSc1ccccc1)Nc1ccc(S(=O)(=O)NC(=O)c2ccc(N3CCC([C@@H](O)c4ccccc4-c4ccc(Cl)cc4)CC3)cc2)cc1S(=O)(=O)C(F)(F)F [AZD4320] + CS(=O)(=O)CCNCc1ccc(-c2ccc3ncnc(Nc4ccc(OCc5cccc(F)c5)c(Cl)c4)c3c2)o1 [Lapatinib] (first compound max 1 µM, 7x7, partner max 10 µM) has a reported Bliss excess of -0.0269

----------
tested on: DOK (Oral Cavity Carcinoma); experiment: Bliss excess, mean over the matrix (fraction); higher = more synergy
outcome.measure: Bliss excess
In your answer, state the number alone without any accompanying words.

Cc1c2c(nn1C)CSCc1cc(n(C)n1)CSc1cc(c3ccccc3c1)OCCCc1c(C(=O)O)n(C)c3c-2c(Cl)ccc13 [AZD5991] + Cc1cc2ncnn2cc1Nc1ncc2c(n1)n(C1CCOCC1)c(=O)n2C [AZD7648] (first compound max 1 µM, 7x7, partner max 10 µM) has a reported Bliss excess of 0.0115

N#Cc1cnc(Nc2cc(NC[C@H]3CNCCO3)c(C(F)(F)F)cn2)cn1 [SRA737] + C=CCn1c(=O)c2cnc(Nc3ccc(N4CCN(C)CC4)cc3)nc2n1-c1cccc(C(C)(C)O)n1 [AZD1775] (first compound max 10 µM, partner max 1 µM) has a reported Bliss excess of -0.0139

COc1nnc2ccc(N3CCC(c4ccc(OCCN5CCN(C)C(=O)[C@H]5C)cc4)CC3)nn12 [AZD5153] + C[C@@H]1COCCN1C2=NC(=NC(=C2)C3(CC3)[S@](=N)(=O)C)C4=C5C=CNC5=NC=C4 [AZD6738] (first compound max 1 µM, 7x7, partner max 10 µM) has a reported Bliss excess of 0.008

C[C@@H](Oc1cc(-c2cnn(C3CCNCC3)c2)cnc1N)c1c(Cl)ccc(F)c1Cl [Crizotinib] + CC1=C(C(=CC=C1)Cl)NC(=O)C2=CN=C(S2)NC3=CC(=NC(=N3)C)N4CCN(CC4)CCO [Dasatinib] (first compound max 10 µM, 7x7, partner max 2 µM) has a reported Bliss excess of -0.0008

NC1(C(=O)N[C@@H](CCO)c2ccc(Cl)cc2)CCN(c2ncnc3[nH]ccc23)CC1 [Capivasertib] + Cn1cnc2c(F)c(Nc3ccc(Br)cc3Cl)c(C(=O)NOCCO)cc21 [Selumetinib] (first compound max 10 µM, 7x7, partner max 10 µM) has a reported Bliss excess of 0.0518

NC1(C(=O)N[C@@H](CCO)c2ccc(Cl)cc2)CCN(c2ncnc3[nH]ccc23)CC1 [Capivasertib] + CC(=O)c1c(C)c2cnc(Nc3ccc(N4CCNCC4)cn3)nc2n(C2CCCC2)c1=O [Palbociclib] (first compound max 10 µM, 7x7, partner max 10 µM) has a reported Bliss excess of 0.016

Cc1cc2ncnn2cc1Nc1ncc2c(n1)n(C1CCOCC1)c(=O)n2C [AZD7648] + C=CCn1c(=O)c2cnc(Nc3ccc(N4CCN(C)CC4)cc3)nc2n1-c1cccc(C(C)(C)O)n1 [AZD1775] (first compound max 10 µM, partner max 1 µM) has a reported Bliss excess of 0.0331

----------
Exercise: state measured Bliss excess for each of the compounds provided.
tested on: EW-22 (Ewing's Sarcoma); assay: Bliss excess, mean over the matrix (fraction); higher = more synergy
In your answer, state the number alone without any accompanying words.

C[C@@H]1COCCN1c1cc(C2([S@](C)(=N)=O)CC2)nc(-c2ccnc3[nH]ccc23)n1 [AZD6738] + O=C(c1cc(Cc2n[nH]c(=O)c3ccccc23)ccc1F)N1CCN(C(=O)C2CC2)CC1 [Olaparib] (first compound max 10 µM, 7x7, partner max 10 µM) has a reported Bliss excess of 0.02

C[C@@H]1COCCN1c1cc(C2([S@](C)(=N)=O)CC2)nc(-c2ccnc3[nH]ccc23)n1 [AZD6738] + Nc1ccn([C@@H]2O[C@H](CO)[C@@H](O)C2(F)F)c(=O)n1 [Gemcitabine] (first compound max 10 µM, 7x7, partner max 0.3 µM) has a reported Bliss excess of 0.0068

CCN(CCO)CCCOc1ccc2c(Nc3cc(CC(=O)Nc4cccc(F)c4)[nH]n3)ncnc2c1 [AZD2811] + C[C@@H]1COCCN1C2=NC(=NC(=C2)C3(CC3)[S@](=N)(=O)C)C4=C5C=CNC5=NC=C4 [AZD6738] (first compound max 1 µM, 7x7, partner max 10 µM) has a reported Bliss excess of -0.0503

O=C(c1cc(Cc2n[nH]c(=O)c3ccccc23)ccc1F)N1CCN(C(=O)C2CC2)CC1 [Olaparib] + COc1nnc2ccc(N3CCC(c4ccc(OCCN5CCN(C)C(=O)[C@H]5C)cc4)CC3)nn12 [AZD5153] (first compound max 10 µM, 7x7, partner max 1 µM) has a reported Bliss excess of 0.0369

C[C@@H]1COCCN1c1cc(C2([S@](C)(=N)=O)CC2)nc(-c2ccnc3[nH]ccc23)n1 [AZD6738] + C1CC(C1)(C(=O)[O-])C(=O)[O-].N.N.[Pt+2] [Carboplatin] (first compound max 10 µM, 7x7, partner max 10 µM) has a reported Bliss excess of -0.0301

Cc1nc(-c2cn3c(n2)-c2ccc(-c4cnn(C(C)(C)C(N)=O)c4)cc2OCC3)n(C(C)C)n1 [Taselisib] + O=C(Nc1ccc2[nH]nc(-c3ccncc3)c2c1)[C@@H]1CCN(CC(=O)N2CCN(c3ccc(-c4ncccn4)cc3)CC2)C1 [SCH772984] (first compound max 10 µM, 7x7, partner max 5 µM) has a reported Bliss excess of 0.0152

Cc1cc2ncnn2cc1Nc1ncc2c(n1)n(C1CCOCC1)c(=O)n2C [AZD7648] + CCN(CCO)CCCOc1ccc2c(Nc3cc(CC(=O)Nc4cccc(F)c4)[nH]n3)ncnc2c1 [AZD2811] (first compound max 10 µM, 7x7, partner max 1 µM) has a reported Bliss excess of -0.0261

CC(=O)Nc1cccc(-n2c(=O)n(C3CC3)c(=O)c3c(Nc4ccc(I)cc4F)n(C)c(=O)c(C)c32)c1 [Trametinib] + Cc1nc(-c2cn3c(n2)-c2ccc(-c4cnn(C(C)(C)C(N)=O)c4)cc2OCC3)n(C(C)C)n1 [Taselisib] (first compound max 1 µM, 7x7, partner max 10 µM) has a reported Bliss excess of -0.0042

C[C@@H](Oc1cc(-c2cnn(C3CCNCC3)c2)cnc1N)c1c(Cl)ccc(F)c1Cl [Crizotinib] + CC1=C(C(=CC=C1)Cl)NC(=O)C2=CN=C(S2)NC3=CC(=NC(=N3)C)N4CCN(CC4)CCO [Dasatinib] (first compound max 10 µM, 7x7, partner max 2 µM) has a reported Bliss excess of -0.0466

Cc1c2c(nn1C)CSCc1cc(n(C)n1)CSc1cc(c3ccccc3c1)OCCCc1c(C(=O)O)n(C)c3c-2c(Cl)ccc13 [AZD5991] + C1CN(CCC1(C(=O)N[C@@H](CCO)C2=CC=C(C=C2)Cl)N)C3=NC=NC4=C3C=CN4 [Capivasertib] (first compound max 1 µM, 7x7, partner max 3 µM) has a reported Bliss excess of 0.0007

COc1cccc(OCCCN)c1-c1cc(Nc2cnc(C#N)cn2)n[nH]1 [Prexasertib] + CN(C)CCCOc1ccc(-c2ccc3ncc4c(c3c2)n(C2CCOCC2)c(=O)n4C)cn1 [AZD0156] (first compound max 1 µM, 7x7, partner max 1 µM) has a reported Bliss excess of -0.05

CC1(C)CCC(CN2CCN(c3ccc(C(=O)NS(=O)(=O)c4ccc(NCC5CCOCC5)c([N+](=O)[O-])c4)c(Oc4cnc5[nH]ccc5c4)c3)CC2)=C(c2ccc(Cl)cc2)C1 [Venetoclax] + C[C@@H](Nc1cc(F)cc(F)c1)c1cc(C(=O)N(C)C)cc2c(=O)cc(N3CCOCC3)oc12 [AZD8186] (first compound max 1 µM, 7x7, partner max 3 µM) has a reported Bliss excess of 0.0333

CC1(C)CCC(CN2CCN(c3ccc(C(=O)NS(=O)(=O)c4ccc(NCC5CCOCC5)c([N+](=O)[O-])c4)c(Oc4cnc5[nH]ccc5c4)c3)CC2)=C(c2ccc(Cl)cc2)C1 [Venetoclax] + C[C@@H]1COCCN1C2=NC(=NC(=C2)C3(CC3)[S@](=N)(=O)C)C4=C5C=CNC5=NC=C4 [AZD6738] (first compound max 1 µM, 7x7, partner max 10 µM) has a reported Bliss excess of -0.0189

Cc1cc2ncnn2cc1Nc1ncc2c(n1)n(C1CCOCC1)c(=O)n2C [AZD7648] + C=CCn1c(=O)c2cnc(Nc3ccc(N4CCN(C)CC4)cc3)nc2n1-c1cccc(C(C)(C)O)n1 [AZD1775] (first compound max 10 µM, partner max 1 µM) has a reported Bliss excess of -0.0043
